Assay: yeast display, Sf9 membrane polyspecificity reagent, FACS + sequencing; frameworks hold sequencing errors
endpoint_label: polyreactivity (PSR sort gate)

query_sequence=QVQLVESGGGLVQAGGSLRLSCAASGRTFVGYAMGWYRQPPGKERELVAAISGSGVRTYYADSVKGRFTISRDNAKNTGYLQMNSLKPEDTAVYYCADRRYRRWYDYWGQGTQVTVSS observed="high polyreactivity"
query_sequence=QVQLVESGGGLVQAGGSLRLSCAASGRIFRPNAMGWYRQAPGKEREFVAAITSSSGTTYYADSVKGRFTISRDNAKNTVYLQMNSLKPEDTAVYYCAAAQRSVRLKFGYWGQGTQVTVSS observed="high polyreactivity"
query_sequence=QVQLVESGGGLVQAGGSLRLSCAASGNTFWSYTMGWYRQAPGKERELVAAITRSGGSTYYADSVKGRFTISRDHAKNTVYLQMNSLKPEDTAVYYCAADYYSASRFGYWGQGTQVTVSS observed="high polyreactivity"
